Would you kindly list cAMP EC50 for each of these binders?
- EXPERIMENTAL SYSTEM: hMC5-R (human) (UniProt P33032)
- Sequence (P33032 whole entry): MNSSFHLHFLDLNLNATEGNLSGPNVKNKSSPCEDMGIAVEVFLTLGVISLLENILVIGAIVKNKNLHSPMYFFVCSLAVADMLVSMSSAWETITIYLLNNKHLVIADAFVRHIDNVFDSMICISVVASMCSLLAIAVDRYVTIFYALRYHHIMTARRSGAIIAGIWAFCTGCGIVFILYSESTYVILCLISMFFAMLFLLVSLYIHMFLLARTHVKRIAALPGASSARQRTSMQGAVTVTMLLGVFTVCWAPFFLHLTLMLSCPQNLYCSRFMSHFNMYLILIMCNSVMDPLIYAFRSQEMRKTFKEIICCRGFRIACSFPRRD
- METHOD DESCRIPTION: cell-based or functional assay
Bridge positions count the residues as written; N and C are the ends. Square brackets hold non-standard residues; d marks the D form. Ends that are not written are not given here. 1Nal = N[C@@H](Cc1cccc2ccccc12)C(=O)O; d2Nal = N[C@H](Cc1ccc2ccccc2c1)C(=O)O; Bta = N[C@@H](Cc1csc2ccccc12)C(=O)O; Nle = CCCC[C@H](N)C(=O)O; Orn = NCCC[C@H](N)C(=O)O; Dap = NC[C@H](N)C(=O)O

[[record]]
binder = "Ac-[Nle]D[dA]H[dF]R[Bta]K-NH2 (lactam 2-8; SMILES CCCC[C@H](NC(C)=O)C(=O)N[C@H]1CC(=O)NCCCC[C@@H](C(N)=O)NC(=O)[C@H](Cc2csc3ccccc23)NC(=O)[C@H](CCCNC(=N)N)NC(=O)[C@@H](Cc2ccccc2)NC(=O)[C@H](Cc2c[nH]cn2)NC(=O)[C@@H](C)NC1=O) [Ac-Nle-c(Asp-D-Ala-His-D-Phe-Arg-Bal-Lys)-NH2]"
reported_value = "> 10 µM"

[[record]]
binder = "D[dA]H[dF]RW[Orn]-NH2 (lactam 1-7; also: residues 1-2 joined in a hydantoin ring (C(O))) [c[Hydantoin(C(O)-(Asp-D-Ala))-His-D-Phe-Arg-Trp-Orn]-NH2]"
reported_value = "9.3 µM"

[[record]]
binder = "E[dA]H[dF]RW[Dap]-NH2 (lactam 1-7 (inferred); also: residues 1-2 joined in a hydantoin ring (C(O))) [c[Hydantoin(C(O)-(Glu-D-Ala))-His-D-Phe-Arg-Trp-Dap]-NH2]"
reported_value = "> 10 µM"


As a next step, examine the binder that follows.
Input Ac-[Nle]C[dA]H[d2Nal]R[1Nal]C-NH2 (disulfide 2-8; SMILES CCCC[C@H](NC(C)=O)C(=O)N[C@H]1CSSC[C@@H](C(N)=O)NC(=O)[C@H](Cc2cccc3ccccc23)NC(=O)[C@H](CCCNC(=N)N)NC(=O)[C@@H](Cc2ccc3ccccc3c2)NC(=O)[C@H](Cc2c[nH]cn2)NC(=O)[C@@H](C)NC1=O) [Ac-Nle-c(Cys-D-Ala-His-D-2-Nal-Arg-1-Nal-Cys)-NH2] , output reported cAMP EC50.
2.84 µM

Value source: patent US20120135923A1
